- target_or_test_system: Met kinase domain (GST fusion protein) (Homo sapiens, UniProt P08581)
- Construct: Purified GST fusion protein containing the Met kinase domain
- Sequence (P08581 1078-1345 limits assumed): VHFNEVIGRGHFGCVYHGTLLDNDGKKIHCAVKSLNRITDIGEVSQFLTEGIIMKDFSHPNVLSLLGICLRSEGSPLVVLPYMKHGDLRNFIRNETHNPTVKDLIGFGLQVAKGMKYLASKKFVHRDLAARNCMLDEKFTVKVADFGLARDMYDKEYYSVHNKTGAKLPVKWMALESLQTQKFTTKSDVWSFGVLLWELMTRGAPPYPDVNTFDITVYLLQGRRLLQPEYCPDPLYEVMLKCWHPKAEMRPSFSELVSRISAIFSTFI
- protocol_summary: Met transphosphorylation assay (ELISA, poly(glu-tyr) substrate)
- Type: biochemical
- measurement_conditions: Table 2; read-out: Met IC50
# IC50 per record follows

molecule: CC(Oc1cc(-c2cccc(C(=O)N3CCC[C@@H]3CN3CCCC3)c2)cnc1N)c1c(F)ccc(F)c1Cl (stereo partly shown)
units_text: nM
IC50: 230
--
molecule: CC(Oc1cc(-c2ccc(C(=O)N3CC[C@@H](N)C3)cc2)cnc1N)c1c(F)ccc(F)c1Cl (stereo partly shown)
units_text: nM
IC50: 89
--
molecule: Nc1ncc(-c2cccc(NS(=O)(=O)CCN3CCOCC3)c2)cc1OCc1c(F)ccc(F)c1Cl
units_text: nM
IC50: 1640
--
molecule: CCN(CC)CCS(=O)(=O)Nc1ccc(-c2cnc(N)c(OCc3c(F)ccc(F)c3Cl)c2)cc1
units_text: nM
IC50: 43

====

# inhibition at 1 pM per record follows
- target_or_test_system: HGFR (Homo sapiens, UniProt P08581)
- Construct: purchased Upstate 14-526
- Sequence (P08581 974-1390 limits assumed): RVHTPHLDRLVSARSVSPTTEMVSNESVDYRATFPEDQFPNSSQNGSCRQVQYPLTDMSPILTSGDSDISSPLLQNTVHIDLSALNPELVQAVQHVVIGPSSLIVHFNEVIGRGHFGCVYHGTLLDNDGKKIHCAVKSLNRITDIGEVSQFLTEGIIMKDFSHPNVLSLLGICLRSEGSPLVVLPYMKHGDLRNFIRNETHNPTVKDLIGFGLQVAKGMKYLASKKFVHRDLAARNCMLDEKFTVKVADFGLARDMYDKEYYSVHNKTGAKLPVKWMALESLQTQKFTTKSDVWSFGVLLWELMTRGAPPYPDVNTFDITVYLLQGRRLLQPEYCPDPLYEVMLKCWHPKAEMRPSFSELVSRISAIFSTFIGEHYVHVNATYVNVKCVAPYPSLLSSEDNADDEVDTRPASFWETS
- protocol_summary: HGFR continuous-coupled spectrophotometric assay
- Type: biochemical
- measurement_conditions: at 1 pM; Table 6, library procedure 41; read-out: % Inhibition (percent c-MET inhibition)

compound: Nc1ncc(C(=O)N2CCC3(CC2)CC(N2CCC(O)CC2)CO3)cc1OCc1c(Cl)cccc1Cl (centres unmarked)
inhibition at 1 pM: 28%
//
compound: Cc1ccc2c(c1)C(NC(=O)c1cnc(N)c(OCc3c(Cl)cccc3Cl)c1)CCO2 (centres unmarked)
inhibition at 1 pM: 17%
//
compound: Nc1ncc(C(=O)N[C@@H]2CCC[C@H]2OCc2ccccc2)cc1OCc1c(Cl)cccc1Cl
inhibition at 1 pM: 16%
//
compound: Nc1ncc(C(=O)NCCc2nc3ccccc3s2)cc1OCc1c(Cl)cccc1Cl
inhibition at 1 pM: 26%
//
compound: Cc1cnc(CNC(=O)c2cnc(N)c(OCc3c(Cl)cccc3Cl)c2)cn1
inhibition at 1 pM: 33%
//
compound: Nc1ncc(C(=O)NC[C@H]2CCCC[C@H]2O)cc1OCc1c(Cl)cccc1Cl
inhibition at 1 pM: 24%
//
compound: Nc1ncc(C(=O)NCc2ccc(O)cc2)cc1OCc1c(Cl)cccc1Cl
inhibition at 1 pM: 37%
//
compound: Cc1noc([C@H]2CC[C@H](CNC(=O)c3cnc(N)c(OCc4c(Cl)cccc4Cl)c3)CC2)n1
inhibition at 1 pM: 3%
//
compound: Nc1ncc(C(=O)N2CCN(c3ccccn3)CC2)cc1OCc1c(Cl)cccc1Cl
inhibition at 1 pM: 34%
//
compound: Nc1ncc(C(=O)NC(CO)c2cccnc2)cc1OCc1c(Cl)cccc1Cl (centres unmarked)
inhibition at 1 pM: 22%
//
compound: Nc1ncc(C(=O)NCCCN2CCOCC2)cc1OCc1c(Cl)cccc1Cl
inhibition at 1 pM: 26%
//
compound: Nc1ncc(C(=O)N2CCC(O)CC2)cc1OCc1c(Cl)cccc1Cl
inhibition at 1 pM: 35%
//
compound: COCCNC(=O)C1CCCN(C(=O)c2cnc(N)c(OCc3c(Cl)cccc3Cl)c2)C1 (centres unmarked)
inhibition at 1 pM: 20%
//
compound: CCS(=O)(=O)N1CCN(C(=O)c2cnc(N)c(OCc3c(Cl)cccc3Cl)c2)CC1
inhibition at 1 pM: 22%
//
compound: CC(CN(C)C)NC(=O)c1cnc(N)c(OCc2c(Cl)cccc2Cl)c1 (centres unmarked)
inhibition at 1 pM: 45%
//
compound: Nc1ncc(C(=O)N2CCC3(CC2)CC3C(=O)N2CCCCC2)cc1OCc1c(Cl)cccc1Cl (centres unmarked)
inhibition at 1 pM: 26%
//
compound: Nc1ncc(C(=O)NCCC2CCOCC2)cc1OCc1c(Cl)cccc1Cl
inhibition at 1 pM: 31%

====

- target_or_test_system: HGFR (Homo sapiens, UniProt P08581)
- Construct: purchased Upstate 14-526
- protocol_summary: HGFR continuous-coupled spectrophotometric assay
- Type: biochemical
- measurement_conditions: cells prefixed Ki; read-out: Met Ki

compound: C=Cc1cnc(N)c(OC(C)c2c(Cl)ccc(F)c2Cl)c1 (centres unmarked) [Example I-461]
target_or_test_system: HGFR (Homo sapiens, UniProt P08581)
Ki, µM: 0.68

compound: CC(Oc1cc(-c2ccc(OCC(=O)N3C[C@@H](C)N[C@@H](C)C3)cc2)cnc1N)c1c(Cl)ccc(F)c1Cl (some centres unmarked) [Example I-477]
target_or_test_system: HGFR (Homo sapiens, UniProt P08581)
Ki, µM: 0.027

compound: CC(Oc1cc(C#CC(C)(C)NC(=O)NCCN2CCCC2)cnc1N)c1c(Cl)ccc(F)c1Cl (centres unmarked) [Example I-437]
target_or_test_system: HGFR (Homo sapiens, UniProt P08581)
Ki, µM: 0.61

compound: CC(Oc1cc(C#CC(C)(C)NC(=O)N2CCC[C@H]2CN2CCCC2)cnc1N)c1c(Cl)ccc(F)c1Cl (some centres unmarked) [Example I-435]
target_or_test_system: HGFR (Homo sapiens, UniProt P08581)
Ki, µM: 1.58

compound: CC(Oc1cc(C#CC(C)(C)NC(=O)N2CCN(C)CC2)cnc1N)c1c(Cl)ccc(F)c1Cl (centres unmarked) [Example I-432]
target_or_test_system: HGFR (Homo sapiens, UniProt P08581)
Ki, µM: 0.61

compound: CC(C)Oc1c(F)cccc1COc1cc(Br)cnc1N [Example I-472]
target_or_test_system: HGFR (Homo sapiens, UniProt P08581)
Ki, µM: 12.1

compound: CC(Oc1cc(C#CC(C)(C)NC(=O)N2CCC(N3CCCC3)CC2)cnc1N)c1c(Cl)ccc(F)c1Cl (centres unmarked) [Example I-438]
target_or_test_system: HGFR (Homo sapiens, UniProt P08581)
Ki, µM: 0.72

compound: CC(Oc1cc(-c2ccc(OCC(=O)N3CC[C@@H](O)C3)cc2)cnc1N)c1c(Cl)ccc(F)c1Cl (some centres unmarked) [Example I-478]
target_or_test_system: HGFR (Homo sapiens, UniProt P08581)
Ki, µM: 0.041

compound: CC(Oc1cc(-c2cnn(CCN3CCOCC3)c2)cnc1N)c1c(Cl)ccc(F)c1Cl (centres unmarked) [Example I-467]
target_or_test_system: HGFR (Homo sapiens, UniProt P08581)
Ki, µM: 0.083

compound: CC(Oc1cc(C#CC(C)(C)NC(=O)N2CCC[C@@H]2CN2CCCC2)cnc1N)c1c(Cl)ccc(F)c1Cl (some centres unmarked) [Example I-434]
target_or_test_system: HGFR (Homo sapiens, UniProt P08581)
Ki, µM: 1.22

compound: CC(Oc1cc(C#CC(C)(C)NC(=O)NCCN2CCOCC2)cnc1N)c1c(Cl)ccc(F)c1Cl (centres unmarked) [Example I-436]
target_or_test_system: HGFR (Homo sapiens, UniProt P08581)
Ki, µM: 1.11

compound: CC(Oc1cc(-c2cnn(CCN3CCCC3)c2)cnc1N)c1c(Cl)ccc(F)c1Cl (centres unmarked) [Example I-465]
target_or_test_system: HGFR (Homo sapiens, UniProt P08581)
Ki, µM: 0.34

compound: CC(Oc1cc(-c2ccc(OCC(=O)N3CCN(C(=O)OC(C)(C)C)CC3)cc2)cnc1N)c1c(Cl)ccc(F)c1Cl (centres unmarked) [Example I-479]
target_or_test_system: HGFR (Homo sapiens, UniProt P08581)
Ki, µM: 0.16

compound: CC(Oc1cc(C#CC(C)(C)NC(=O)N2C[C@@H](C)N[C@@H](C)C2)cnc1N)c1c(Cl)ccc(F)c1Cl (some centres unmarked) [Example I-433]
target_or_test_system: HGFR (Homo sapiens, UniProt P08581)
Ki, µM: 1.5

====

- target_or_test_system: Met kinase domain (GST fusion protein) (Homo sapiens)
- Construct: Purified GST fusion protein containing the Met kinase domain
- protocol_summary: Met transphosphorylation assay (ELISA, poly(glu-tyr) substrate);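 note: Cell-free ELISA with plate-bound poly(Glu:Tyr 4:1) phosphorylated by GST-fused Met kinase domain plus ATP and Mn2+, phosphotyrosine detected by anti-phosphotyrosine antibody with HRP and ABTS read-out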
- Format: biochemical
- measurement_conditions: Table 2; read-out: Met IC50
# IC50 per record follows

compound: Nc1ncc(-c2cccc(C(=O)N3CC[C@@H](N)C3)c2)cc1OCc1c(F)ccc(F)c1Cl
IC50, nM: 120
--
compound: Nc1ncc(-c2ccc(C(=O)NCCCN3CCCC3)cc2)cc1OCc1c(F)ccc(F)c1Cl
IC50, nM: 190
--
compound: CC(Oc1cc(-c2ccc(OC3CCN(C)CC3)cc2)cnc1N)c1c(Cl)ccc(F)c1Cl (centres unmarked)
IC50, nM: 52
--
compound: Nc1ncc(-c2ccc(C(=O)NCCCN3CCOCC3)cc2)cc1OCc1ccccc1C(F)(F)F
IC50, nM: 3800
--
compound: Nc1ncc(-c2cccc(NS(=O)(=O)CCN3CC[C@@H](CO)C3)c2)cc1OCc1c(F)ccc(F)c1Cl
IC50, nM: 1700
--
compound: CC(Oc1cc(-c2ccc(C(=O)NCCCN3CCCC3)cc2)cnc1N)c1c(Cl)ccc(F)c1Cl (centres unmarked)
IC50, nM: 64
--
compound: CCN(CC)CCOc1ccc(-c2cnc(N)c(OC(C)c3c(Cl)ccc(F)c3Cl)c2)cc1 (centres unmarked)
IC50, nM: 33
--
compound: Nc1ncc(-c2cccc(NS(=O)(=O)CCN3CCCC3)c2)cc1OCc1c(F)ccc(F)c1Cl
IC50, nM: 230

FYI, the data here is from patent US20050009840A1.
